Assay: protein stability index of a GFP-peptide fusion (yeast GPS) (PSI 1-4); higher = more stable; sorted into four equal gates, so the index is relative within each strain
Details: pdr5∆

chain sequence: PVVRAPTVKYNRKVRAG [RPL13A]
protein stability index: 2.15

chain sequence: ENGDEDEDEDEDEDDDD [QCR6]
protein stability index: 1.74

chain sequence: DRKIQGWLGALTMANLP [ARP7]
protein stability index: 3

chain sequence: FDKIIKIREDHINKIPS [SRB8]
protein stability index: 2.95

chain sequence: AVKLGDLKKFTSTITKY [RPN3]
protein stability index: 2.51

chain sequence: SNTEPIPRSNRHGSVVE [MED1]
protein stability index: 3.22

chain sequence: LTQGINGKEVPLAKIYL [MED1]
protein stability index: 2.95

chain sequence: TPRDRRKSVFAPLNFNP [SSN2]
protein stability index: 2.57

chain sequence: TSLLNKVLKSGSGVDSS [RRP42]
protein stability index: 2.88

chain sequence: TKTRKHRGHVSAGKGRI [RPL28]
protein stability index: 2.21

chain sequence: SRGINKGHKFNNTKAGR [RPL15A]
protein stability index: 3

chain sequence: KPVKVALIFIFFAYFIG [YJL039C/NUP192]
protein stability index: 1.4

chain sequence: STSVGWKYEDVVAKLED [RPL16B]
protein stability index: 2.28

chain sequence: ANKEKKRAEKAARKAEK [RPL24B]
protein stability index: 3.36
